biological target: Falcipain 2B (Plasmodium falciparum); assay: Inhibition of Plasmodium falciparum recombinant FP2B fused with maltose binding protein
MEASURED_ENDPOINT: pIC50
Scale: pIC50 equals -log10([C]), with [C] in mol/L.

Example compounds with recorded pIC50:
O=C(CN1C(=O)[C@H](COC(=O)Nc2ccc(Cl)cc2C(F)(F)F)N=C(c2ccccc2)c2ccccc21)N[C@H]1CC(=O)OC1O (some centres undefined) = 4.71
O=C(CN1C(=O)[C@@H](COC(=O)Nc2ccc(F)cc2)N=C(c2ccccc2)c2ccccc21)N[C@H]1CC(=O)OC1O (some centres undefined) = 4.92
O=C(CN1C(=O)[C@@H](COC(=O)Nc2ccc(Cl)cc2)N=C(c2ccccc2)c2ccccc21)N[C@H]1CC(=O)OC1O (some centres undefined) = 5.02

# pIC50 lookup, item COc1ccc(NC(=O)OC[C@H]2N=C(c3ccccc3)c3ccccc3N(CC(=O)N[C@H]3CC(=O)OC3O)C2=O)cc1 (some centres undefined)
4.85

---

target: Caspase-7 (Homo sapiens) (UniProt P55210); experiment: Inhibition of human recombinant caspase7 upto 50 uM
Sequence (P55210 24-198 limits assumed): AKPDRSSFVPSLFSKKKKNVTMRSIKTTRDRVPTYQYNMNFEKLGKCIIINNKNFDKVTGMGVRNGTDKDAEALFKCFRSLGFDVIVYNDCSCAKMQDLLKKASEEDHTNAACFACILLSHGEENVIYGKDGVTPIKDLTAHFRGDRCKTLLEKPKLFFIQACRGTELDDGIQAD
Sequence (P55210 207-303 limits assumed): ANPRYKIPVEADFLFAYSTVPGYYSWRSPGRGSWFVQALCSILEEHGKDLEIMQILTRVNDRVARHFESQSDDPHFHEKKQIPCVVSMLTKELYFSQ
The source made the active and inactive calls. The rule behind the calls is not given here. Residues, ends and D or L forms follow the SMILES beside them. *: point of attachment. Cbz = O=C(OCc1ccccc1)*
MEASURED_ENDPOINT: Activity

O=C(CN1C(=O)[C@@H](COC(=O)Nc2c(F)cc(F)cc2Br)N=C(c2ccccc2)c2ccccc21)N[C@H]1CC(=O)OC1O (some centres undefined) = inactive
O=C(CN1C(=O)[C@@H](COC(=O)Nc2ccc(F)cc2)N=C(c2ccccc2)c2ccccc21)N[C@H]1CC(=O)OC1O (some centres undefined) = inactive
O=C(CN1C(=O)[C@H](COC(=O)Nc2ccc(Cl)cc2C(F)(F)F)N=C(c2ccccc2)c2ccccc21)N[C@H]1CC(=O)OC1O (some centres undefined) = inactive
CC(C)[C@H](NC(=O)OCc1ccccc1)C(=O)N[C@H](C=O)Cc1ccccc1 (Cbz-Val-Phe-aldehyde) = inactive

---

target: Falcipain 2B (Plasmodium falciparum, UniProt Q3HTL5); experiment: Inhibition of Plasmodium falciparum recombinant FP2B fused with maltose binding protein
Sequence (Q3HTL5 whole entry, the tested form may be a part): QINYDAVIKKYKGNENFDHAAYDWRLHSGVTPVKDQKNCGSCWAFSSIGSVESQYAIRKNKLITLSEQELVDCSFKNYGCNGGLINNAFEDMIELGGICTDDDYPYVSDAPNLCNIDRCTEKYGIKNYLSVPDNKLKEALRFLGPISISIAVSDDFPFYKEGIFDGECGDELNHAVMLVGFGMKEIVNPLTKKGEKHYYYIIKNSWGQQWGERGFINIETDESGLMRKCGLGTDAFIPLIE
pIC50: −log10 of the molar value. Residues, ends and D or L forms follow the SMILES beside them. *: point of attachment. Cbz = O=C(OCc1ccccc1)*
Decision: pIC50 compared against 5; not below it gives class 1, below it gives class 0.

O=C(CN1C(=O)[C@@H](COC(=O)Nc2ccc(F)cc2F)N=C(c2ccccc2)c2ccccc21)N[C@H]1CC(=O)OC1O (some centres not stated) = class 0
O=C(CN1C(=O)[C@@H](COC(=O)Nc2c(F)cc(F)cc2Br)N=C(c2ccccc2)c2ccccc21)N[C@H]1CC(=O)OC1O (some centres not stated) = class 0
O=C(CN1C(=O)[C@@H](COC(=O)Nc2ccccc2)N=C(c2ccccc2)c2ccccc21)N[C@H]1CC(=O)OC1O (some centres not stated) = class 0
O=C(CN1C(=O)[C@@H](COC(=O)Nc2cccc3ccccc23)N=C(c2ccccc2)c2ccccc21)N[C@H]1CC(=O)OC1O (some centres not stated) = class 0

Say whether O=C(CN1C(=O)[C@@H](COC(=O)Nc2ccc(Cl)cc2C(F)(F)F)N=C(c2ccccc2)c2ccccc21)N[C@H]1CC(=O)OC1O (some centres not stated) shows pIC50 of 5 or more.
class 0

Also check CC(C)[C@H](NC(=O)OCc1ccccc1)C(=O)N[C@H](C=O)Cc1ccccc1 (Cbz-Val-Phe-aldehyde)
class 1

---

molecular target: Caspase-5 (Homo sapiens) (UniProt P51878); test: Inhibition of human recombinant caspase5 upto 50 uM
Sequence (P51878 137-327 limits assumed): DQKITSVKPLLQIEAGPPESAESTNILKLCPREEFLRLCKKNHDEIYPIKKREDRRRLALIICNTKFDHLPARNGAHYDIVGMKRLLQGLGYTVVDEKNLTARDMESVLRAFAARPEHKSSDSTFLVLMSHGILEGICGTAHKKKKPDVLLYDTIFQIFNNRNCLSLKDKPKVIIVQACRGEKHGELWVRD
Sequence (P51878 347-434 limits assumed): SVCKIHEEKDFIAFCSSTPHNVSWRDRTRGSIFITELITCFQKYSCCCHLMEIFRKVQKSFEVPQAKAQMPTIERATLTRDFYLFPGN
Calls of active or inactive are those of the source. No cut-off for these calls is given here.
MEASURED_ENDPOINT: Activity

COc1ccc(NC(=O)OC[C@H]2N=C(c3ccccc3)c3ccccc3N(CC(=O)N[C@H]3CC(=O)OC3O)C2=O)cc1 (some centres undefined) = inactive
O=C(CN1C(=O)[C@@H](COC(=O)Nc2ccc(F)cc2)N=C(c2ccccc2)c2ccccc21)N[C@H]1CC(=O)OC1O (some centres undefined) = inactive
O=C(CN1C(=O)[C@@H](COC(=O)Nc2ccc(Cl)cc2)N=C(c2ccccc2)c2ccccc21)N[C@H]1CC(=O)OC1O (some centres undefined) = inactive
O=C(CN1C(=O)[C@@H](COC(=O)Nc2ccc(Cl)cc2C(F)(F)F)N=C(c2ccccc2)c2ccccc21)N[C@H]1CC(=O)OC1O (some centres undefined) = inactive

---

Target: Falcipain 2 (Plasmodium falciparum)
Sequence (Q9N6S8 whole entry): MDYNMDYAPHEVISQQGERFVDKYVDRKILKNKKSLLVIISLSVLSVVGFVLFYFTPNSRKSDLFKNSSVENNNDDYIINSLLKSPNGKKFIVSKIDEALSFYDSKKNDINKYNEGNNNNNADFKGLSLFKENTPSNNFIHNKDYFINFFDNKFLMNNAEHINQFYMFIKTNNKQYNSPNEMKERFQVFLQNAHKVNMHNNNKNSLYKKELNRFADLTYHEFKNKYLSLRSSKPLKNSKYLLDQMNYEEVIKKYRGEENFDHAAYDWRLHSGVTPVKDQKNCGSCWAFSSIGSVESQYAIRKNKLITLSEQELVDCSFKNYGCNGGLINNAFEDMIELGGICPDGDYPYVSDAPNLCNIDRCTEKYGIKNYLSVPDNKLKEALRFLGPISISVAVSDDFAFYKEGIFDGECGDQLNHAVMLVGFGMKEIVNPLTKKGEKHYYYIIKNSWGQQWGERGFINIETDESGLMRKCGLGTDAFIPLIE
Assay: Inhibition of Plasmodium falciparum recombinant FP2A fused with maltose binding protein
Residues, ends and D or L forms follow the SMILES beside them. *: point of attachment. Cbz = O=C(OCc1ccccc1)*
// reported pIC50 per item
Scale: pIC50 equals -log10([C]), with [C] in mol/L.

# pIC50 lookup, item O=C(CN1C(=O)[C@@H](COC(=O)Nc2ccc(F)cc2)N=C(c2ccccc2)c2ccccc21)N[C@H]1CC(=O)OC1O (stereo partly specified)
4.79

Also check CC(C)[C@H](NC(=O)OCc1ccccc1)C(=O)N[C@H](C=O)Cc1ccccc1 (Cbz-Val-Phe-aldehyde)
5.30

Also check O=C(CN1C(=O)[C@@H](COC(=O)Nc2ccc(Cl)cc2)N=C(c2ccccc2)c2ccccc21)N[C@H]1CC(=O)OC1O (stereo partly specified)
4.82

Also check O=C(CN1C(=O)[C@@H](COC(=O)Nc2c(F)cc(F)cc2Br)N=C(c2ccccc2)c2ccccc21)N[C@H]1CC(=O)OC1O (stereo partly specified)
4.72

---

// reported pIC50 per item
molecular target: Falcipain 2 (Plasmodium falciparum); experiment: Inhibition of Plasmodium falciparum recombinant FP2A fused with maltose binding protein
Scale: pIC50 equals -log10([C]), with [C] in mol/L.

# pIC50 lookup, item O=C(CN1C(=O)[C@@H](COC(=O)Nc2ccccc2)N=C(c2ccccc2)c2ccccc21)N[C@H]1CC(=O)OC1O (some centres not stated)
4.67

Also check O=C(CN1C(=O)[C@@H](COC(=O)Nc2ccc(F)cc2F)N=C(c2ccccc2)c2ccccc21)N[C@H]1CC(=O)OC1O (some centres not stated)
4.87

Also check O=C(CN1C(=O)[C@H](COC(=O)Nc2ccc(Cl)cc2C(F)(F)F)N=C(c2ccccc2)c2ccccc21)N[C@H]1CC(=O)OC1O (some centres not stated)
4.99

Also check O=C(CN1C(=O)[C@@H](COC(=O)Nc2ccc(Cl)cc2C(F)(F)F)N=C(c2ccccc2)c2ccccc21)N[C@H]1CC(=O)OC1O (some centres not stated)
5.06

Also check COc1ccc(NC(=O)OC[C@H]2N=C(c3ccccc3)c3ccccc3N(CC(=O)N[C@H]3CC(=O)OC3O)C2=O)cc1 (some centres not stated)
5.06

Also check Cc1cc(Cl)ccc1NC(=O)OC[C@H]1N=C(c2ccccc2)c2ccccc2N(CC(=O)N[C@H]2CC(=O)OC2O)C1=O (some centres not stated)
5.08

Also check O=C(CN1C(=O)[C@@H](COC(=O)Nc2cccc3ccccc23)N=C(c2ccccc2)c2ccccc21)N[C@H]1CC(=O)OC1O (some centres not stated)
4.95
